Values compiled from paper PMC9699003.

Tested on: SW480 cells
Experiment Summary: Cellular ruthenium accumulation (ICP-MS)
Format: cell-based, human
Details: SW480, 2 h incubation, 37 °C, 5 µM
In this section, each of the compounds is paired with its reported Ru [102]/cell (cellular accumulation).
Provide only the numeric value, understood in fg.

Compound: CC1=C([O-])C([O-])(n2cccn2)c2ccccc2C1=O.[Ru+2].c1ccc2c(c1)CCC2 (racemic)
Ru [102]/cell (cellular accumulation) [fg]: 100

Requested field: Ru [102]/cell (cellular accumulation). Item: CC1=C([O-])C([O-])(n2cccn2)c2ccccc2C1=O.Cc1c(C)c(C)c(C)c(C)c1C.[Ru+2] (stereo not drawn)
206

Then CC1=C([O-])C([O-])(n2cccn2)c2ccccc2C1=O.[Ru+2].c1ccccc1 (racemic) ?
11

And what about the compound CC1=C([O-])C([O-])(n2cccn2)c2ccccc2C1=O.Cc1ccccc1.[Ru+2] (racemic) ?
33

Record: CC1=C([O-])C([O-])(n2cccn2)c2ccccc2C1=O.Cc1ccc(C(C)C)cc1.[Ru+2] (racemic)
299

Also CC1=C([O-])C([O-])(n2cccn2)c2ccccc2C1=O.[Ru+2].c1ccc(-c2ccccc2)cc1 (racemic) ?
336
